Source of measurements: patent US20200199127A1

pKi: −log10 of the molar value.
I'd appreciate it if you could supply pKi values for the items below.

Query block: # value lookup — system Human norepinephrine transporter (NET) (Homo sapiens), readout pKi, item CCOc1ccc(-n2nc3c(N(C)Cc4ccc(O)cc4)nnc(C)c3c2C)c(F)c1 [Example 18]
Result block: > 7.00

Query block: # value lookup — system Human norepinephrine transporter (NET) (Homo sapiens), readout pKi, item CCOc1ccc(-n2nc3c(N(C)Cc4ccncc4)nnc(C)c3c2C)c(F)c1 [Example 11]
Result block: < 6.00

Query block: # value lookup — system Human norepinephrine transporter (NET) (Homo sapiens), readout pKi, item CCOc1ccc(-n2nc3c(NCC(CO)Cc4ccccc4)nnc(C)c3c2C)c(F)c1 (stereo not shown) [Example 12]
Result block: 6.30 to 7.00

Query block: # value lookup — system Human norepinephrine transporter (NET) (Homo sapiens), readout pKi, item CCOc1ccc(-n2nc3c(N(C)CCc4ccccn4)nnc(C)c3c2C)c(F)c1 [Example 16]
Result block: < 6.00

Query block: # value lookup — system Human norepinephrine transporter (NET) (Homo sapiens), readout pKi, item CCOc1ccc(-n2nc3c(N(C)CCCc4ccccc4)nnc(C)c3c2C)c(F)c1 [Example 4]
Result block: 6.30 to 7.00

Query block: # value lookup — system Human norepinephrine transporter (NET) (Homo sapiens), readout pKi, item CCOc1ccc(-n2nc3c(N(C)Cc4ccccc4O)nnc(C)c3c2C)c(F)c1 [Example 23]
Result block: 6.00 to 6.30

Query block: # value lookup — system Human norepinephrine transporter (NET) (Homo sapiens), readout pKi, item COc1ccc(-n2nc3c(N(C)Cc4ccccn4)nnc(C)c3c2C)cc1 [Example 48]
Result block: < 6.00
